// data source = patent US20200024322A1

- test_system: T1, human GIP receptor (human, UniProt P48546 22-466)
- T1 construct: whole, on cells; Used as crude membranes of stably transfected CHO cells; also called hGIPR
- T1 sequence (looked up): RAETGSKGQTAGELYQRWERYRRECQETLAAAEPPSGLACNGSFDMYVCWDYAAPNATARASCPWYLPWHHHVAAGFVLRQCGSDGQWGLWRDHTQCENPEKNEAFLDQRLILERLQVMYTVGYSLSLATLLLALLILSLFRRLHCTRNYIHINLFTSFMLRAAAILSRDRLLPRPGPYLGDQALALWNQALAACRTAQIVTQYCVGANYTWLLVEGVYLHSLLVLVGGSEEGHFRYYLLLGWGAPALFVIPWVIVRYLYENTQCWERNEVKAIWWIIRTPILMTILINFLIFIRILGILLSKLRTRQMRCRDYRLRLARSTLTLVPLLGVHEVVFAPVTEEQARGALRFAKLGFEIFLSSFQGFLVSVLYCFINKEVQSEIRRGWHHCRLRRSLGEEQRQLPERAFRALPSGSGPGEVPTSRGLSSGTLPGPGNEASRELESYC
- test_protocol: SPA, [125I]-GIP displacement, hGIPR membranes
reported_metric: pKi
A value of pKi is the negative decimal logarithm of a concentration given in moles per litre.

Record FXEGTXTSDYSIXLDEKAQXAFIEYLIEGGPSSGAPPPS (Aib2; αMeF6; αMeL13; K17((2-[2-(2-Amino-ethoxy)-ethoxy]-acetyl)2-(γ-Glu)-CO-(CH2)18-CO2H); Aib20; C-terminal NH2) [Example 119] . Reported pKi: 10.03

Lab note: measured pKi of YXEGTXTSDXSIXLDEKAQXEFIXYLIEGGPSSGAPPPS (Aib2; αMeF(2F)6; 4Pal10; αMeL13; K17((2-[2-(2-Amino-ethoxy)-ethoxy]-acetyl)2-(εK)-CO-(CH2)18-CO2H); Aib20; D-Glu24; C-terminal NH2) [Example 207] was 10.10

# pKi (binder: YXEGTXTSDYSIXLDEKAQXEFIEYLIEGGPSSGAPPPS (Aib2; αMeF(2F)6; αMeL13; K17((2-[2-(2-Amino-ethoxy)-ethoxy]-acetyl)2-(γ-Glu)-CO-(CH2)18-CO2H); Aib20; C-terminal NH2) [Example 118] ) is 10.07

Sample XXEGTXTSDYSIXLDEKAQXEFIEYLIEGGPSSGAPPPS (DesTyr1; Aib2; αMeF(2F)6; αMeL13; K17((2-[2-(2-Amino-ethoxy)-ethoxy]-acetyl)2-(γ-Glu)-CO-(CH2)18-CO2H); Aib20; C-terminal NH2) [Example 134] ; pKi observed: 9.85

Measured pKi of YXEGTFTSDYSILLDKKAQXAXIEYLIEGGPSSGAPPPS (Aib2; K17((2-[2-(2-Amino-ethoxy)-ethoxy]-acetyl)2-(γ-Glu)-CO-(CH2)18-CO2H); Aib20; αMeF22; C-terminal NH2) [Example 67] : 10.21

pKi reading for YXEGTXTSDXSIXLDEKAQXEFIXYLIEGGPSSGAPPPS (not printed (the compound name of this Example is missing from the table of Examples 6-287)) [Example 182] : 10.17

Looking up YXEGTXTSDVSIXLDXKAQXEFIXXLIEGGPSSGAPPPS (not fully specified; Aib2; αMeF(2F)6; αMeL13; Orn16; K17((2-[2-(2-Amino-ethoxy)-ethoxy]-acetyl)2-(γ-Glu)-CO-(CH2)16-CO2H); Aib20; D-Glu24; αMeY25; C-terminal NH2) [Example 5] , I see its pKi listed as 10.21

Per the records, this binder ( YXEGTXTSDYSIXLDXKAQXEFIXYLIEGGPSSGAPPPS (Aib2; αMeF(2F)6; αMeL13; Dab16; K17((2-[2-(2-Amino-ethoxy)-ethoxy]-acetyl)2-(γ-Glu)-CO-(CH2)16-CO2H); Aib20; D-Glu24; C-terminal NH2) [Example 209] ) has pKi equal to 10.18

Sample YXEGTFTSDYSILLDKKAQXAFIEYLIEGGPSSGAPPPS (Aib2; K17((2-[2-(2-Amino-ethoxy)-ethoxy]-acetyl)-AOC-(γ-Glu)-CO-(CH2)18-CO2H); Aib20; C-terminal NH2) [Example 108] ; pKi observed: 10.14
